# test target: T1, EsCas13d, nuclease-dead (Eubacterium siraeum, UniProt B0MS50, R295A;H300A;R849A;H854A)
# T1 sequence: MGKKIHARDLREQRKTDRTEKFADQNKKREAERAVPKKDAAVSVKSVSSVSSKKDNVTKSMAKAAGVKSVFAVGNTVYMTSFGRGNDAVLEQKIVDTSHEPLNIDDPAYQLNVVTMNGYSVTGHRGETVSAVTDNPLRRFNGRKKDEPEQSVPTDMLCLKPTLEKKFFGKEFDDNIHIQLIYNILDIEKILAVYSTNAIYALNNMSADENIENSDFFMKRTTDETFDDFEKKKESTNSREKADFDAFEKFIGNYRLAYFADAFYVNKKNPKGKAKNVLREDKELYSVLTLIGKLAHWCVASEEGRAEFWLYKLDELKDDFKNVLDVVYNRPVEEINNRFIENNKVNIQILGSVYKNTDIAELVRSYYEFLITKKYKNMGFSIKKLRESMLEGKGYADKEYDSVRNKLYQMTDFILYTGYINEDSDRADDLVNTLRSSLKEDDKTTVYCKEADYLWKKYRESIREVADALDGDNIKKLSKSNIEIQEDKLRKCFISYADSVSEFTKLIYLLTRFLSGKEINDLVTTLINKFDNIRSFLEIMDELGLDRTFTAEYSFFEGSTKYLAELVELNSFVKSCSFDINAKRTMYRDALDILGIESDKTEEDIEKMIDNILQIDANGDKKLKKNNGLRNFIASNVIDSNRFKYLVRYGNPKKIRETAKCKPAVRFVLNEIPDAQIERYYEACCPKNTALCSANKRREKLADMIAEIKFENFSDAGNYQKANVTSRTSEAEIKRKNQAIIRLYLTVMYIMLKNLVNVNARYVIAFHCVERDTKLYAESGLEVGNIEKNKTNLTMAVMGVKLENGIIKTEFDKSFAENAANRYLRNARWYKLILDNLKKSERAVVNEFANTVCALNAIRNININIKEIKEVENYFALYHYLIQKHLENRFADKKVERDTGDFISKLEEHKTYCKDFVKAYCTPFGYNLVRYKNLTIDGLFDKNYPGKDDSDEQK
# assay protocol: crRNA (strand 1, pre-loaded); Mg2+; 40 mM Tris-HCl pH 7.5, 150 mM NaCl, 6 mM MgCl2, 1 mM DTT, 0.1% Tween-20, 0.2 mg/ml BSA; 25 C; 10 min per concentration, then washed
# particulars: tags: His6-TwinStrep-SUMO cleaved; N-terminal SNAP kept (SNAP-Surface 488); label: 3' end held by stalled T7 RNA polymerase
measured metric: pKd
A value of pKd is the negative decimal logarithm of a concentration given in moles per litre.

target 1 C4A,U10G (mixed) RNA 1: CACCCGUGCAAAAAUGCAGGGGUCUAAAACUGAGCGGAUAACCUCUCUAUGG RNA 2: GGGAAUGGAUCCACAUCUACGAAUUCGUACCAUAGAGAGGUGAUCCGAUCACCGAGAUCGGAAGAGCACACGU: 8.00
target 2 MT 5'PFS GCU 3'PFS CAG (mixed) RNA 1: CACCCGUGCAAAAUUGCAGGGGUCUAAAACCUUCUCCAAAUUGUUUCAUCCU RNA 2: GGGAAUGGAUCCACAUCUACGAAUUCGCUAGGAUGAAACAAUUUGGAGAAGCAGAGAUCGGAAGAGCACACGU: 7.77
target 2 MT 5'PFS GUG 3'PFS AGU (mixed) RNA 1: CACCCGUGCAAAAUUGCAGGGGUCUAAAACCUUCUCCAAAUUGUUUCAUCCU RNA 2: GGGAAUGGAUCCACAUCUACGAAUUCGUGAGGAUGAAACAAUUUGGAGAAGAGUAGAUCGGAAGAGCACACGU: 7.91

Kindly consider the entry below.
Entry target 1 insA 3' of 10,insA 3' of 2 (mixed) RNA 1: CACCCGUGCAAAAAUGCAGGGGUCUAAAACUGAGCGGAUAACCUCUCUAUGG RNA 2: GGGAAUGGAUCCACAUCUACGAAUUCGUACCAUAGAGAGGUUAAUCCGCUCAACCGAGAUCGGAAGAGCACACGU : reported pKd = ?
7.85
